Target: adenosine A1 receptor (Cavia porcellus, UniProt P47745)
Construct: from tissue; host or cells: isolated guinea pig left atria
Sequence (P47745 whole entry): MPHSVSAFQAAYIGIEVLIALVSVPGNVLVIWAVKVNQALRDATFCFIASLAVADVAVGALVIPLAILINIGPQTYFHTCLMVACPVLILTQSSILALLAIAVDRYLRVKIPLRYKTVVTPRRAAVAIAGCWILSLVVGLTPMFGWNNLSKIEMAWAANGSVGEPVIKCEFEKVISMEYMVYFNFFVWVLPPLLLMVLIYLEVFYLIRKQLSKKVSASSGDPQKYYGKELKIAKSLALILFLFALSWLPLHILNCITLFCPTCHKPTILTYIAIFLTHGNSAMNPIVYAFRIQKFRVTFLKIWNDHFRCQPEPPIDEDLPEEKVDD
Assay Explanation: A1 in vitro functional test: negative inotropic response, left atria, antagonism of NECA
Type: cell-based, guinea pig
Condition Label: functional, A2 KB /A1 KB
Parameter: Selectivity Ratio (A2 KB /A1 KB). Scope: all listed entries.
Property Label: Selectivity Ratio (A2 KB /A1 KB)

- Molecule: "Cn1cnc2c(NC3CCCCC3)ncnc21 [Example 47, N^6-cyclohexyl-9-methyladenine, reference compound]"
  Readout Value: "> 152"
- Molecule: "CSc1nc2c(N[C@H]3C[C@H]4CC[C@@H]3C4)ncnc2n1C (relative stereo)"
  Readout Value: "> 1540"
- Molecule: "Cn1cnc2c(NC3CCCC3)ncnc21 [Example 48, N^6-cyclopentyl-9-methyladenine, reference compound]"
  Readout Value: "> 395"
